Target: T1, monomeric human sBCMA (GenScript) (human, UniProt Q02223 1-54)
T1 construct: extracellular domain; also called monomeric BCMA; monomeric (soluble) BCMA
T1 sequence (looked up): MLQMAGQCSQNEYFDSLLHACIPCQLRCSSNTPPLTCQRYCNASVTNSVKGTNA
Test: SPR (ProteOn XPR36), antibody captured by anti-Fc, sBCMA 100-6.25 nM as analyte
Give measured Kd for each item. Keep answers brief.
Answers are plain numbers, in nM.

// solved cases for Kd follow
# BINDER, Kd / nM
records = [
    ("P10 (lead optimized clone of 15B2GL) (antibody, V domains shown, Cloned into an IgG mammalian expression vector (\"Maia\") designed for ADC conjugation) VH: EVQLVESGGGLVKPGGSLRLSCAASGFTFRSYSMNWVRQAPGKGLEWVSSISGQSNYIYYADSVKGRFTISRDNAKNSLYLQMNSLRAEDTAVYYCARGGNYYVEYFQYWGQGTLVTVSS VL: EIVLTQSPGTLSLSPGERATLSCRASQYISSNYLAWYQQKPGQAPRLLIYGASNRATGIPDRFSGSGSGTDFTLTISRLEPEDFAVYYCQQYTDSPITFGQGTKLEIK", 5.3),
    ("I09 (lead optimized clone of 15B2GL) (antibody, V domains shown, Cloned into an IgG mammalian expression vector (\"Maia\") designed for ADC conjugation; also called 109 [sic]) VH: EVQLVESGGGLVKPGGSLRLSCAASGFTFSSYSMNWVRQAPGKGLEWVSSISGSSNYIYYADSVKGRFTISRDNAKNSLYLQMNSLRAEDTAVYYCARGGNYFVEYFQQWGQGTLVTVSS VL: EIVLTQSPGTLSLSPGERATLSCRASQYISSNYLAWYQQKPGQAPRLLIYGASNRATGIPDRFSGSGSGTDFTLTISRLEPEDFAVYYCQQYSSDPITFGQGTKLEIK", 9.8),
]

As a next step, examine the binder that follows.
Prompt: Consider the binder M02 (lead optimized clone of 15B2GL) (antibody, V domains shown, Cloned into an IgG mammalian expression vector ("Maia") designed for ADC conjugation) VH: EVQLVESGGGLVKPGGSLRLSCAASGFTFSSYSMNWVRQAPGKGLEWVSSISGQSNYIYYADSVKGRFTISRDNAKNSLYLQMNSLRAEDTAVYYCARGGNYYVEYFQYWGQGTLVTVSS VL: EIVLTQSPGTLSLSPGERATLSCRASQYISSNNLAWYQQKPGQAPRLLIYGASNRATGIPDRFSGSGSGTDFTLTISRLEPEDFAVYYCQQYSSDPITFGQGTKLEIK and give its recorded Kd.
Completion: 9.9
